System: primary AML patient cells (S021)
Assay: viability relative to DMSO control (fraction); higher = less drug effect (more viable cells)
Conditions: 15 µM; 48 h
Entries and their measured viability follow.

Consider the reported viability for these compounds:
{"smilesRepresentation": "CCN1CCN(Cc2ccc(Nc3ncc(F)c(-c4cc(F)c5nc(C)n(C(C)C)c5c4)n3)nc2)CC1", "resultValue": 0.0751}
{"smilesRepresentation": "CNC(=O)c1cc(Oc2ccc(NC(=O)Nc3ccc(Cl)c(C(F)(F)F)c3)cc2)ccn1", "resultValue": 0.888}
{"smilesRepresentation": "Oc1ccc(/C=C/c2cc(O)cc(O)c2)cc1", "resultValue": 0.55}
{"smilesRepresentation": "CS(=O)(=O)c1ccc(C(=O)Nc2ccc(Cl)c(-c3ccccn3)c2)c(Cl)c1", "resultValue": 0.808}
{"smilesRepresentation": "N#CC[C@H](C1CCCC1)n1cc(-c2ncnc3[nH]ccc23)cn1", "resultValue": 0.723}

Query block: Value lookup for viability; key = `C[C@@H](Oc1cc(-c2cnn(C3CCNCC3)c2)cnc1N)c1c(Cl)ccc(F)c1Cl`
Result block: 0.345

----------
Tested on: primary FL patient cells (S022)
Experiment: viability relative to DMSO control (fraction); higher = less drug effect (more viable cells)
Details: 0.008 µM; 48 h
Entries and their measured viability follow.
Respond using a number only.

Query block: Param readout= viability; system= primary FL patient cells (S022); entry= `CC(C)C[C@H](NC(=O)CNC(=O)c1cc(Cl)ccc1Cl)B(O)O` ; returns value.
Result block: 0.894

Query block: Param readout= viability; system= primary FL patient cells (S022); entry= `O=C1c2c(O)ccc(O)c2C(=O)c2c(NCCNCCO)ccc(NCCNCCO)c21` ; returns value.
Result block: 0.953

Query block: Param readout= viability; system= primary FL patient cells (S022); entry= `CCc1cnn2c(NCc3ccc[n+]([O-])c3)cc(N3CCCC[C@H]3CCO)nc12` ; returns value.
Result block: 0.227

Query block: Param readout= viability; system= primary FL patient cells (S022); entry= Nc1cccc2c1CN(C1CCC(=O)NC1=O)C2=O (centres undefined) [Lenalidomide] ; returns value.
Result block: 0.956

----------
System: primary AML patient cells (S009)
Assay: viability relative to DMSO control (fraction); higher = less drug effect (more viable cells)
Conditions: 3 µM; 48 h
Entries and their measured viability follow.
Respond using a number only.

{"smilesRepresentation": "O=C(c1cc(Cc2n[nH]c(=O)c3ccccc23)ccc1F)N1CCN(C(=O)C2CC2)CC1", "reportedProperty": "viability", "resultValue": 0.93}
{"smilesRepresentation": "N#Cc1ccnc(N2C(=O)CC[C@H]2C(=O)N(c2cncc(F)c2)[C@H](C(=O)NC2CC(F)(F)C2)c2ccccc2Cl)c1", "reportedProperty": "viability", "resultValue": 0.943}
{"smilesRepresentation": "N#CC[C@H](C1CCCC1)n1cc(-c2ncnc3[nH]ccc23)cn1", "reportedProperty": "viability", "resultValue": 1.02}

Alright, here's another compound for you.
Query block: Value lookup for viability; key = `C[C@@H](Oc1cc(-c2cnn(C3CCNCC3)c2)cnc1N)c1c(Cl)ccc(F)c1Cl`
Result block: 0.57

----------
Tested on: primary AML patient cells (S009)
Experiment: viability relative to DMSO control (fraction); higher = less drug effect (more viable cells)
Conditions: 0.08 µM; 48 h
reportedProperty: viability
Respond using a number only.

Consider the reported viability for these compounds:
{"smilesRepresentation": "O=C(Nc1nc2ccccc2n1CCN1CCOCC1)c1cccc([N+](=O)[O-])c1", "viability": 0.993}
{"smilesRepresentation": "CC(C)c1cc(-c2n[nH]c(=O)n2-c2ccc3c(ccn3C)c2)c(O)cc1O", "viability": 0.542}
{"smilesRepresentation": "Nc1nc(F)nc2c1ncn2[C@@H]1O[C@H](CO)[C@@H](O)[C@@H]1O", "viability": 0.86}
{"smilesRepresentation": "CN1CC[C@H](c2c(O)cc(O)c3c(=O)cc(-c4ccccc4Cl)oc23)[C@H](O)C1", "viability": 0.619}

Alright, here's another compound for you.
Query block: Value lookup for viability; key = `Cc1sc2c(c1C)C(c1ccc(Cl)cc1)=N[C@@H](CC(=O)Nc1ccc(O)cc1)c1nnc(C)n1-2`
Result block: 0.752
